assayOverview: Half-life in Sprague-Dawley rat at 50 mg/kg, po measured after 24 hrs by LC-MS/MS analysis
Type: ADME, organism-based
details: in vivo
Reported values of half-life for individual entries
Give the value, in units of h, as a plain number.

CC(C)(C)c1ccc(CC[C@@](O)(CC(=O)O)C(=O)O)cc1 = 12.4

Then this compound:
Looking for the measured half-life of O=C(O)CC(O)(CCc1ccc(-c2ccccc2)cc1)C(=O)O (configuration not stated) , can you help?
1.09

----------
assayOverview: Clearance in Sprague-Dawley rat at 5 mg/kg, iv measured after 24 hrs by LC-MS/MS analysis
Assay type: ADME, organism-based
details: in vivo
Reported values of clearance for individual entries
Give the value, in units of mL/min/kg, as a plain number.

Looking for the measured clearance of O=C(O)CC(O)(CCc1ccc(-c2ccccc2)cc1)C(=O)O (configuration not stated) , can you help?
0.667

Looking for the measured clearance of CC(C)(C)c1ccc(CC[C@@](O)(CC(=O)O)C(=O)O)cc1 , can you help?
2

----------
assayOverview: Tmax in Sprague-Dawley rat at 50 mg/kg, po measured after 24 hrs by LC-MS/MS analysis
Format: ADME, organism-based
details: in vivo
quantityName: Tmax (min)
Give the value, in units of min, as a plain number.

Looking for the measured Tmax of O=C(O)CC(O)(CCc1ccc(-c2ccccc2)cc1)C(=O)O (stereo unspecified) , can you help?
45.6

----------
assayOverview: Oral bioavailability in Sprague-Dawley rat at 50 mg/kg measured after 24 hrs by LC-MS/MS analysis
Format: ADME, organism-based
details: in vivo
Reported values of bioavailability for individual entries
Give the value, in units of %, as a plain number.

CC(C)(C)c1ccc(CC[C@@](O)(CC(=O)O)C(=O)O)cc1 = 1.83

Looking for the measured bioavailability of O=C(O)CC(O)(CCc1ccc(-c2ccccc2)cc1)C(=O)O (configuration not stated) , can you help?
48.7

----------
assayOverview: Half-life in Sprague-Dawley rat at 5 mg/kg, iv measured after 24 hrs by LC-MS/MS analysis
Format: ADME, organism-based
details: in vivo
Reported values of half-life for individual entries

O=C(O)CC(O)(CCc1ccc(-c2ccccc2)cc1)C(=O)O (configuration not stated) = 0.69 h

Then this compound:
Looking for the measured half-life of CC(C)(C)c1ccc(CC[C@@](O)(CC(=O)O)C(=O)O)cc1 , can you help?
2.61 h

----------
Reported values of AUC(0-inf) for individual entries
assayOverview: AUC (0 to infinity) in Sprague-Dawley rat at 5 mg/kg, iv measured after 24 hrs by LC-MS/MS analysis
Assay type: ADME, organism-based
details: in vivo
Give the value, in units of ng·h/mL, as a plain number.

CC(C)(C)c1ccc(CC[C@@](O)(CC(=O)O)C(=O)O)cc1 = 40400

Looking for the measured AUC(0-inf) of O=C(O)CC(O)(CCc1ccc(-c2ccccc2)cc1)C(=O)O (configuration not stated) , can you help?
145000

----------
assayOverview: Volume of distribution in Sprague-Dawley rat at 5 mg/kg, iv measured after 24 hrs by LC-MS/MS analysis
Assay type: ADME, organism-based
details: in vivo
quantityName: Vd (L/kg)
Give the value, in units of L/kg, as a plain number.

CC(C)(C)c1ccc(CC[C@@](O)(CC(=O)O)C(=O)O)cc1 = 0.69

Then this molecule:
Looking for the measured Vd of O=C(O)CC(O)(CCc1ccc(-c2ccccc2)cc1)C(=O)O (configuration not stated) , can you help?
0.03

----------
Reported values of pIC50 for individual entries
testedTarget: Na(+)/citrate cotransporter (Homo sapiens, UniProt Q86YT5)
Sequence (Q86YT5 whole entry): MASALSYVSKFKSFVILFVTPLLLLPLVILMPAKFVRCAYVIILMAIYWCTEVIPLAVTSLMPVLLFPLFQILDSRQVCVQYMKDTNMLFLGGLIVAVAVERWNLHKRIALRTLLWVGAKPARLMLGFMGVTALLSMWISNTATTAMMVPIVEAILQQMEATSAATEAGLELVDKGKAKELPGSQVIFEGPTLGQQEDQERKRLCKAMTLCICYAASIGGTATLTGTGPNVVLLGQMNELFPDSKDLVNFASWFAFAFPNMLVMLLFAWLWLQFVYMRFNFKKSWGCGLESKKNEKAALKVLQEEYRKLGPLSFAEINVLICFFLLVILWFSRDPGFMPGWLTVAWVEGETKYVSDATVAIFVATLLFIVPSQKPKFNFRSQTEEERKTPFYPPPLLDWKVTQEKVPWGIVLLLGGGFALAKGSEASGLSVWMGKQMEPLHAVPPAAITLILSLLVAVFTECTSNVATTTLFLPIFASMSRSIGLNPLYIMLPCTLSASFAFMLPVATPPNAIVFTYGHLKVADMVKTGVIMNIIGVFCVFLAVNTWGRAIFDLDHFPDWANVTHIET
assayOverview: Inhibition of human SLC13A5 transfected in HEK293T cells incubated for 30 mins by D4-citrate uptake assay
Here pIC50 is given on a logarithmic scale as minus log10 of the concentration in mol/L.

Known pIC50 results, listed for orientation:
O=C(O)CC(O)(CCc1nc2ccccc2s1)C(=O)O (stereo not drawn) = 6.80
O=C(O)CC(O)(CCc1ccc(-c2ccc3c(c2)OCO3)cc1)C(=O)O (stereo not drawn) = 6.96
O=C(O)CC(O)(CCc1ccc(N2CCOCC2)cc1)C(=O)O (stereo not drawn) = 6.07
COc1cccc(-c2ccc(CCC(O)(CC(=O)O)C(=O)O)cc2)c1 (stereo not drawn) = 6.47
CCn1nccc1-c1ccc(CCC(O)(CC(=O)O)C(=O)O)cc1 (stereo not drawn) = 6.89

Looking for the measured pIC50 of O=C(O)CC(O)(CCc1ccc(-c2cccc3c2NCCC3)cc1)C(=O)O (stereo not drawn) , can you help?
6.46

Looking for the measured pIC50 of O=C(O)CC(O)(CCc1ccc(-c2ccccc2C(F)(F)F)cc1)C(=O)O (stereo not drawn) , can you help?
6.68

Looking for the measured pIC50 of O=C(O)CC(O)(CCc1ccc(-c2ccccc2)cc1)C(=O)O (stereo not drawn) , can you help?
7.17

Looking for the measured pIC50 of COc1cc(-c2ccc(CCC(O)(CC(=O)O)C(=O)O)cc2)ccn1 (stereo not drawn) , can you help?
6.07

Looking for the measured pIC50 of O=C(O)CC(O)(CCc1ccc(-c2cccc(OC(F)(F)F)c2)cc1)C(=O)O (stereo not drawn) , can you help?
6.72

Looking for the measured pIC50 of CCCOc1cccc(-c2ccc(CCC(O)(CC(=O)O)C(=O)O)cc2)c1 (stereo not drawn) , can you help?
6.57

Looking for the measured pIC50 of Cn1nccc1-c1ccc(CCC(O)(CC(=O)O)C(=O)O)cc1 (stereo not drawn) , can you help?
5.71

Looking for the measured pIC50 of O=C(O)CC(O)(CCc1ccc(-c2ccn[nH]2)cc1)C(=O)O (stereo not drawn) , can you help?
5.93

Looking for the measured pIC50 of O=C(O)CC(O)(CCc1ccc(-c2cccc(C(F)(F)F)c2)cc1)C(=O)O (stereo not drawn) , can you help?
6.82

Looking for the measured pIC50 of O=C(O)CC(O)(CCc1ccc2ccccc2c1)C(=O)O (stereo not drawn) , can you help?
7.14

Looking for the measured pIC50 of COc1ccccc1-c1ccc(CCC(O)(CC(=O)O)C(=O)O)cc1 (stereo not drawn) , can you help?
6.54

Looking for the measured pIC50 of CCOc1cccc(-c2ccc(CCC(O)(CC(=O)O)C(=O)O)cc2)c1 (stereo not drawn) , can you help?
6.51

Looking for the measured pIC50 of CC(C)Oc1cccc(-c2ccc(CCC(O)(CC(=O)O)C(=O)O)cc2)c1 (stereo not drawn) , can you help?
6.36
